- System: Plasmodium berghei
- Assay Procedure: Screen against P. berghei liver stage (PbLuc), transformed with Luciferase, at 10uM
- Type: functional, HepG2
- Assay Conditions: tested at 10 uM
The campaign covered roughly 69,000 compounds. About 8,600 (12%) showed an effect of 50% or more. The sample as a whole holds a higher share of strong results than the screen did.
Binary call on INHIBITION: y from 30% upward, n beneath that.

As a guide, the following entries are already answered.
Cc1ccc(C(=O)NC2CCN(C(=O)NCc3ccccn3)CC2)o1 | n
CN(CC(=O)NCC(=O)Nc1ccc(F)cc1)Cc1cccs1 | n
CCc1csc(C2CCCN(C(=O)c3cc(C4CC4)[nH]n3)C2)n1 (centres undefined) | n
Cc1ccsc1C(=O)N1CCCn2nnc(Cn3cccn3)c2C1 | y
OC1CN(Cc2ccccc2)CCN(c2ccncc2)C1 (centres undefined) | y

Prompt: Can `CN1CCC(c2cncc(C(=O)NCc3ccc(F)cc3)n2)CC1` be said to have INHIBITION at or above 30%?
Response: n
